Just for reference, paper PMC6010071 is where these values come from.

# measured target: heterologously expressed human CYP1A2 enzyme (Homo sapiens, UniProt P05177)
# Construct: purchased Corning Inc., Corning, NY
# Sequence (P05177 whole entry): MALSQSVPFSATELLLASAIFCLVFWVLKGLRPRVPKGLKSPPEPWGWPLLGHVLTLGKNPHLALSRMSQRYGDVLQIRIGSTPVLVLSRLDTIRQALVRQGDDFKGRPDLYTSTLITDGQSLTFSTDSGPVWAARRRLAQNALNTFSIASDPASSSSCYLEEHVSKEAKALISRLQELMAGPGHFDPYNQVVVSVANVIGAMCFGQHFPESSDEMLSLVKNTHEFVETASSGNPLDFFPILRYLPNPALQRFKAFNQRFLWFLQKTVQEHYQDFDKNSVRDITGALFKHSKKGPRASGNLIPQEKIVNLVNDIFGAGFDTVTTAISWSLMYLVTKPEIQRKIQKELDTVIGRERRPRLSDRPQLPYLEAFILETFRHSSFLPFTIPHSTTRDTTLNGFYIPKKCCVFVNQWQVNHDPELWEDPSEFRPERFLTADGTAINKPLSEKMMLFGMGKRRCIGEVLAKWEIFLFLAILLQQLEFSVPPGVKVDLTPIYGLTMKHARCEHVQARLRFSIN
# procedure text: CYP1A2 inhibition
# Type: biochemical
# condition label: read-out: CYP1A2 inhibition ∼ pIC50 (converted)
reported metric: IC50 (µM)
Supply the numeric figure in µM, leaving out any unit text.

Examples with their reported IC50 follow.
compound="COc1ccc(-c2cc3cccc(O)c3oc2=O)cc1 [Compound 1]" reported_metric=IC50 reported_result=85.1
compound="O=c1oc2ccc(O)cc2cc1-c1ccc(O)cc1 [Compound 2]" reported_metric=IC50 reported_result=33.1
compound="O=c1oc2ccc(Cl)cc2cc1-c1cccc(O)c1 [Compound 4]" reported_metric=IC50 reported_result=0.129

In: Read off the recorded IC50 for O=c1oc2ccccc2cc1-n1ccnc1 [Compound 10, 3–(1H-imidazol-1-yl)-2H-chromen-2-one]
Out: 0.115

In: Read off the recorded IC50 for O=c1oc2ccccc2cc1-c1cccc(O)c1 [Compound 3, 3–(3-hydroxyphenyl)-2H-chromen-2-one]
Out: 7.08

---

# measured target: recombinant human HSD2 (Homo sapiens)
# Construct: made in house; host or cells: Sf9 insect cells
# Sequence (P37059 whole entry): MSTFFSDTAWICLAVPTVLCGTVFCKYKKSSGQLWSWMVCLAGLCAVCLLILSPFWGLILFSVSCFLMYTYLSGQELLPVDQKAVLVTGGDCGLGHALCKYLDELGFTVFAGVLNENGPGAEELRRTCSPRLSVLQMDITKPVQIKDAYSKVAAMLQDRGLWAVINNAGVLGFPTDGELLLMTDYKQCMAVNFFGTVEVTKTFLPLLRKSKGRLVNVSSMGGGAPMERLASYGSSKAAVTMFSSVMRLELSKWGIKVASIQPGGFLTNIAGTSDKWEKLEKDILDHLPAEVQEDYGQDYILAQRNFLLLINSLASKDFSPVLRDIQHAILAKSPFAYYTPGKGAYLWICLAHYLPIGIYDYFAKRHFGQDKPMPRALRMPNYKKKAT
# procedure text: HSD2 inhibition, HPLC assay of [3H]-E2 to [3H]-E1 conversion
# Assay type: biochemical
# condition label: read-out: HSD2 inhibition at 1 µM
# Protocol: The inhibition was determined by HPLC using recombinant human HSD1 and HSD2 proteins as described in a prior study. In short, recombinant human HSD1 and HSD2 were produced in Sf9-insect cells. […]. […] After incubation the substrate and the product of enzymatic conversion [3H]-E1 and [3H]-E2 were separated and quantified by HPLC (Alliance 2790, Waters, Milford, MA) connected to an online counter (Packard Flow Scintillation Analyser; Perkin Elmer Inc., Waltham, CA). […]
reported metric: inhibition at 1 µM (%)
Supply the numeric figure in %, leaving out any unit text.

Examples with their reported inhibition at 1 µM follow.
compound=COc1ccc2oc(=O)c(-c3ccc(O)c(F)c3)cc2c1 reported_result=13
compound="O=c1oc2ccccc2cc1-c1cccc(O)c1 [Compound 3, 3–(3-hydroxyphenyl)-2H-chromen-2-one]" reported_result=42
compound="O=c1c(Oc2ccc(Cl)cc2)coc2cc(O)cc(O)c12 [HM2001, reference compound]" reported_result=100
compound=O=c1oc2ccc(O)cc2cc1-c1ccc(O)cc1 reported_result=7
compound=O=c1oc2ccc(Cl)cc2cc1-c1cccc(O)c1 reported_result=16
compound=COc1ccc(-c2cc3cccc(O)c3oc2=O)cc1 reported_result=27

In: Read off the recorded inhibition at 1 µM for COc1ccc2cc(-c3ccc(O)c(F)c3)c(=O)oc2c1
Out: 31

---

# measured target: MAO-A (Homo sapiens, UniProt P21397)
# Construct: purchased Sigma-Aldrich (St. Louis, MO)
# Sequence (P21397 whole entry): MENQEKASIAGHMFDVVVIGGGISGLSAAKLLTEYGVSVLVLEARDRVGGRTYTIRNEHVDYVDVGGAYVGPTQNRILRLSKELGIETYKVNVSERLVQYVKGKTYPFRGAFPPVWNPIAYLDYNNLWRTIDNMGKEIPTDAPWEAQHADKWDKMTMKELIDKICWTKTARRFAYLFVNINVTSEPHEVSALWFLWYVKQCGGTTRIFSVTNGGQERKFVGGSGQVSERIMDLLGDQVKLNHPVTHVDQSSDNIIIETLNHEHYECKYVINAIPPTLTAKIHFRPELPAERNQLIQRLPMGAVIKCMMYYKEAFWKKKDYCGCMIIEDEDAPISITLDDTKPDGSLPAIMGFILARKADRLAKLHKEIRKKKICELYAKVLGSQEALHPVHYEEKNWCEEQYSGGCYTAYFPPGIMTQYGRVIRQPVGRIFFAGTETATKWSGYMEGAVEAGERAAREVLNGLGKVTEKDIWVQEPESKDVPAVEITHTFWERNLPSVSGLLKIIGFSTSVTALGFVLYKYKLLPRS
# procedure text: MAO-A inhibition, continuous spectrophotometric assay
# Assay type: biochemical
# condition label: 100 µM; single point, read at 30 min; read-out: MAO-A inhibition at 100 µM
reported metric: inhibition at 100 µM (%)
Supply the numeric figure in %, leaving out any unit text.

molecule="O=c1oc2ccccc2cc1-c1cccc(O)c1 [Compound 3, 3–(3-hydroxyphenyl)-2H-chromen-2-one]" reported_result=4
molecule=COc1ccc2cc(-c3ccc(O)c(F)c3)c(=O)oc2c1 reported_result=-1
molecule=COc1ccc(-c2cc3cccc(O)c3oc2=O)cc1 reported_result=4

The record that follows has no inhibition at 100 µM shown yet.
In: Read off the recorded inhibition at 100 µM for COc1ccc2oc(=O)c(-c3ccc(O)c(F)c3)cc2c1
Out: -11

---

# measured target: recombinant human HSD1 (Homo sapiens, UniProt P14061)
# Construct: made in house; host or cells: Sf9 insect cells
# Sequence (P14061 1-328): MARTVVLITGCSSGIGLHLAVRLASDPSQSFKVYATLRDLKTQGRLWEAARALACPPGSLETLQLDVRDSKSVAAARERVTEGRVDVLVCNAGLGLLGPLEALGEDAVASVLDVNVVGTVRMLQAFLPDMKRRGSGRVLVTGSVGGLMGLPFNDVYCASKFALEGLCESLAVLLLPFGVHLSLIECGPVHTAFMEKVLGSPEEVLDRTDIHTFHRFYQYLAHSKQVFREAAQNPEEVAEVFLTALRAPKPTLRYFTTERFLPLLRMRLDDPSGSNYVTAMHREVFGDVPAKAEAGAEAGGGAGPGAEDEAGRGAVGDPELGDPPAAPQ
# procedure text: HSD1 inhibition, HPLC assay of [3H]-E1 to [3H]-E2 conversion
# Assay type: biochemical
# condition label: 100 nM; average of two measurements, except for compounds 8 and 9; read-out: HSD1 inhibition at 100 nM
// label = t if inhibition at 0.1 µM is not less than 20%, otherwise f

In: Please indicate if the recorded inhibition at 0.1 µM for O=c1oc2ccccc2cc1-c1cccc(O)c1 [Compound 3, 3–(3-hydroxyphenyl)-2H-chromen-2-one] meets or exceeds 20%.
Out: f

In: Please indicate if the recorded inhibition at 0.1 µM for O=c1oc2ccc(Cl)cc2cc1-c1cccc(O)c1 [Compound 4] meets or exceeds 20%.
Out: t

In: Please indicate if the recorded inhibition at 0.1 µM for O=c1oc2ccccc2cc1-n1ccnc1 [Compound 10, 3–(1H-imidazol-1-yl)-2H-chromen-2-one] meets or exceeds 20%.
Out: f

In: Please indicate if the recorded inhibition at 0.1 µM for COc1ccc2cc(-c3ccc(O)c(F)c3)c(=O)oc2c1 [Compound 6] meets or exceeds 20%.
Out: f

In: Please indicate if the recorded inhibition at 0.1 µM for COc1ccc2oc(=O)c(-c3ccc(O)c(F)c3)cc2c1 [Compound 7] meets or exceeds 20%.
Out: f

In: Please indicate if the recorded inhibition at 0.1 µM for COc1ccc(-c2cc3cccc(O)c3oc2=O)cc1 [Compound 1] meets or exceeds 20%.
Out: f

---

# measured target: recombinant human HSD1 (Homo sapiens)
# Construct: made in house; host or cells: Sf9 insect cells
# procedure text: HSD1 inhibition, HPLC assay of [3H]-E1 to [3H]-E2 conversion
# Format: biochemical
# condition label: 5 µM; read-out: HSD1 inhibition at 5 µM
# Description: The inhibition was determined by HPLC using recombinant human HSD1 and HSD2 proteins as described in a prior study. In short, recombinant human HSD1 and HSD2 were produced in Sf9-insect cells. […] After incubation, the reaction was stopped by addition of […] 10% trichloroacetic acid per sample. […] Inhibition was measured in three concentrations (100 nM, 1, and 5 µM) in order to follow the progression of inhibition efficiencies. […]
reported metric: inhibition at 5 µM

In: Read off the recorded inhibition at 5 µM for O=c1oc2ccc(Cl)cc2cc1-c1cccc(O)c1
Out: 95%

---

# measured target: MAO-B (Homo sapiens, UniProt P27338)
# Construct: purchased Sigma-Aldrich (St. Louis, MO)
# Sequence (P27338 1-520): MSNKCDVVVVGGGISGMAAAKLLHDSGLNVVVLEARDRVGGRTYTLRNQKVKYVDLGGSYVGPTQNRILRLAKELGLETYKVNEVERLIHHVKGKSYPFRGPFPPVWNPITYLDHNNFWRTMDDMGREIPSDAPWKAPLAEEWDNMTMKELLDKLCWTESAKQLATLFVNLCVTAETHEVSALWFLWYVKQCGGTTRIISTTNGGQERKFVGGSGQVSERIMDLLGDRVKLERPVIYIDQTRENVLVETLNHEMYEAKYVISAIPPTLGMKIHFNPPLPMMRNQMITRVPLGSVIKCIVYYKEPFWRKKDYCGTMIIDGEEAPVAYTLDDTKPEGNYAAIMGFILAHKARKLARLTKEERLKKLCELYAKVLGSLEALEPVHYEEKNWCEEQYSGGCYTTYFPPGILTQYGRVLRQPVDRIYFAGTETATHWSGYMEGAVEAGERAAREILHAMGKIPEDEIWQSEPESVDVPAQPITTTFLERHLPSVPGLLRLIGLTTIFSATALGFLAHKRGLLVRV
# procedure text: MAO-B inhibition, continuous spectrophotometric assay
# Type: biochemical
# condition label: restated from pIC50 above 6; read-out: MAO-B inhibition IC50
reported metric: IC50

molecule="COc1ccc2oc(=O)c(-c3ccc(O)c(F)c3)cc2c1 [Compound 7]" reported_metric=IC50 reported_result="< 1000 nM"

In: Read off the recorded IC50 for COc1ccc2cc(-c3ccc(O)c(F)c3)c(=O)oc2c1 [Compound 6]
Out: < 1000 nM

---

# measured target: recombinant human HSD1 (Homo sapiens)
# Construct: made in house; host or cells: Sf9 insect cells
# procedure text: HSD1 inhibition, HPLC assay of [3H]-E1 to [3H]-E2 conversion
# Type: biochemical
# condition label: 5 µM; read-out: HSD1 inhibition at 5 µM
# Protocol: The inhibition was determined by HPLC using recombinant human HSD1 and HSD2 proteins as described in a prior study. In short, recombinant human HSD1 and HSD2 were produced in Sf9-insect cells. […] After incubation, the reaction was stopped by addition of […] 10% trichloroacetic acid per sample. […] Inhibition was measured in three concentrations (100 nM, 1, and 5 µM) in order to follow the progression of inhibition efficiencies. […]
reported metric: inhibition at 5 µM (%)
Supply the numeric figure in %, leaving out any unit text.

compound="O=c1oc2ccccc2cc1-c1cccc(O)c1 [Compound 3, 3–(3-hydroxyphenyl)-2H-chromen-2-one]" reported_result=76
compound=COc1ccc2cc(-c3ccc(O)c(F)c3)c(=O)oc2c1 reported_result=27
compound=COc1ccc2oc(=O)c(-c3ccc(O)c(F)c3)cc2c1 reported_result=62

The record that follows has no inhibition at 5 µM shown yet.
In: Read off the recorded inhibition at 5 µM for COc1ccc(-c2cc3cccc(O)c3oc2=O)cc1
Out: 88
